Molecular target: T1, Histidine-tagged human CD40 protein (hCD40-His) (human, UniProt P25942 21-193)
T1 construct: not shown: histidine tag
T1 sequence (P25942 21-193 limits assumed): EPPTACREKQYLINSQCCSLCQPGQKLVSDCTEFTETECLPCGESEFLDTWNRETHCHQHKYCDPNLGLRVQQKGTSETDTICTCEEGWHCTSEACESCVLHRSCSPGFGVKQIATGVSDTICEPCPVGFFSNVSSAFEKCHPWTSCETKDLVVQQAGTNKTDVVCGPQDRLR
Assay: SPR, Biacore T200; antibody on Protein A chip, hCD40-His injected; 1:1 fit
measure name: Kd (nM)
Please state the figure in nM; there is no need to write the unit.

Check out these entries, answers already filled in.
4H6-H4K1-IgG4 (antibody, V domains shown, Humanized) VH: EVQLQESGPGLVKPSQTLSLTCTVSGDSVSSGYWNWIRKFPGKKLEYMGFISYSGSTYYTPSLKSRITISRDTSKNQFSLKLSSVTAADTAVYFCARFRRYDDGVDYWGQGTLVTVSS VL: DIQMTQSPSAMSASVGDRVTITCRASHEISGYLSWFQQKPGGVIKRLINAASTLASGVPSRFSGSRSGTEFTLTISSLQPEDFATYYCLQYSSYPWTFGGGTKLEIK ... 145
4H6-H2K2-IgG4 (antibody, V domains shown, Humanized) VH: EVQLQESGPGLVKPSQTLSLTCTVSGDSVSSGYWNWIRKHPGKKLEWIGFISYSGSTYYTPSLKSRVTISRDTSKNQFSLKLSSVTAADTAVYYCARFRRYDDGVDYWGQGTLVTVSS VL: DIQMTQSPSAMSASVGDRVTITCRASHEISGYLSWIQQKPGGTIKRLINAASTLASGVPSRFSGSRSGTEFTLTISSLQPEDFADYYCLQYSSYPWTFGGGTKLEIK ... 138
6A7-H3K2-IgG4 (antibody, V domains shown, Humanized) VH: QVQLVQSGAEVKKPGASVKVSCKASGYTFISYYIYWVRQAPGQGLEWIGGINPRNGGTNFNEKFKSRATLTVDTSISTAYMELSRLRSEDTAVYYCTRHGNGVYWGQGTTVTVSS VL: DVVMTQSPLSLPVTLGQPASISCRSSQSLLHSNGNTYLHWYQQRPGQSPNHLIYQVSNRFSGVPDRFSGSGSGTDFTLKISRVEAEDVGVYFCSQTTHVPWTFGGGTKVEIK ... 5.74
7F10-H1K1-IgG4 (antibody, V domains shown, Humanized) VH: EVQLVESGGGLVQPGGSLRLSCATSGFTFSDYYMYWVRQAPGKRLEWVAYISYGGDSTFYPDTVRGRFTISRDNAKNSLYLQMNSLRAEDTAVYYCARPAPSAHSYYLDYWGQGTLLTVSS VL: DIQMTQSPSSLSASVGDRVTITCRASQDISNYLNWYQQKPGGAVKLLIYYTSRLHSGLPSRFSGSGSGTDFTFTISSLQPEDIATYYCQQGKTLPFTFASGTKLEIK ... 291

Turning to the following binder.
### Prompt I am curious: what Kd value has been reported for 6A7-H2K1-IgG4 (antibody, V domains shown, Humanized) VH: QVQLVQSGAEVKKPGASVKVSCKASGYTFISYYIYWVRQAPGQGLEWIGGINPRNGGTNFNEKFKSRATLTVDTSISTAYMELSRLRSEDTAVYYCARHGNGVYWGQGTTVTVSS VL: DVVMTQSPLSLPVTLGQPASISCRSSQSLLHSNGNTYLHWFQQRPGQSPRHLIYQVSNRFSGVPDRFSGSGSGTDFTLKISRVEAEDVGVYYCSQTTHVPWTFGGGTKVEIK ?
### Response 298
